IC50 tested on Prostaglandin G/H synthase 2 (Homo sapiens): recorded values
Sequence (P35354 whole entry): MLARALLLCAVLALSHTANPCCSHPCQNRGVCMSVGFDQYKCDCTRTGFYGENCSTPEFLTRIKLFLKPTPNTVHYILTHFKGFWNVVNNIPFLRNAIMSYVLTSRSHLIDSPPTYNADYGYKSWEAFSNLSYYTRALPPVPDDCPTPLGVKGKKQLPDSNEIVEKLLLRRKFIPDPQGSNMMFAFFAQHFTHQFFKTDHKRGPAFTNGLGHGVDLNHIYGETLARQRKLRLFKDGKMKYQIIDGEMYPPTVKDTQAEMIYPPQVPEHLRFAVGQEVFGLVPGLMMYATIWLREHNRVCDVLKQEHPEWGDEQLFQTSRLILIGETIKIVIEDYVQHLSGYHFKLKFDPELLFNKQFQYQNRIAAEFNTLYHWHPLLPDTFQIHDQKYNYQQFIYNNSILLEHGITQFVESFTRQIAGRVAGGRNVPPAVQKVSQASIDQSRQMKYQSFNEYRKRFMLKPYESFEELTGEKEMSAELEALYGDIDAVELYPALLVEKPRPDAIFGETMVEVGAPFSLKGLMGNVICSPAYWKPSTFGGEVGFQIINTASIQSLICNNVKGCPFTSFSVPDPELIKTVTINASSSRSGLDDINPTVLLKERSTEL

{"columns": ["Compound", "Measurement qualifier", "IC50 / µM"],
 "data": [
  ["O=S(=O)(Nc1ccncc1Oc1cccc(Cl)c1)C(F)(F)F", ">", 100],
  ["CCCS(=O)(=O)Nc1ccncc1Oc1ccccc1", ">", 100],
  ["O=S(=O)(Nc1ccncc1[S+]([O-])c1ccccc1)C(F)(F)F (stereo unspecified)", ">", 100],
  ["CCCS(=O)(=O)Nc1ccncc1Oc1ccc(Cl)cc1", "=", 9.69],
  ["CS(=O)(=O)Nc1ccncc1Oc1ccccc1Cl", "=", 0.13],
  ["O=S(=O)(Nc1ccncc1Oc1ccc(Cl)cc1Cl)C(F)(F)F", "=", 2.55],
  ["O=S(=O)(Nc1ccncc1Nc1ccccc1)C(F)(F)F", "=", 0.09],
  ["O=S(=O)(Nc1ccncc1Oc1ccccc1Cl)C(F)(F)F", "=", 0.15],
  ["O=S(=O)(Nc1ccncc1Oc1ccc(Cl)cc1)C(F)(F)F", "=", 1.53],
  ["CS(=O)(=O)Nc1ccncc1Oc1cc(Cl)cc(Cl)c1", ">", 100],
  ["CS(=O)(=O)Nc1ccncc1S(=O)(=O)c1ccccc1", ">", 100],
  ["CCS(=O)(=O)Nc1ccncc1Oc1ccc(Cl)cc1", "=", 3.28],
  ["O=S(=O)(Nc1ccncc1Oc1cc(Cl)cc(Cl)c1)C(F)(F)F", ">", 100],
  ["CS(=O)(=O)Nc1ccncc1Oc1ccc(Cl)cc1", "=", 1.87],
  ["O=S(=O)(c1ccccc1)c1cnccc1NS(=O)(=O)C(F)(F)F", ">", 100],
  ["CCS(=O)(=O)Nc1ccncc1Oc1ccccc1", "=", 14.1],
  ["CS(=O)(=O)Nc1ccncc1Sc1ccccc1", "=", 1.19],
  ["COc1ccc(Oc2cnccc2NS(=O)(=O)C(F)(F)F)cc1", "=", 0.44],
  ["O=S(=O)(Nc1ccncc1Oc1ccc(Br)cc1)C(F)(F)F", "=", 13.8],
  ["COc1ccc(Oc2cnccc2NS(C)(=O)=O)cc1", "=", 2.36],
  ["CS(=O)(=O)Nc1ccncc1Oc1cccc(Cl)c1", "=", 1.99],
  ["CN(c1ccccc1)c1cnccc1NS(=O)(=O)C(F)(F)F", "=", 47.6],
  ["CS(=O)(=O)Nc1ccncc1Oc1ccccc1", ">", 100],
  ["CS(=O)(=O)Nc1ccncc1Oc1ccc(Br)cc1", "=", 7.6],
  ["O=S(=O)(Nc1ccncc1Sc1ccccc1)C(F)(F)F", "=", 0.53],
  ["CS(=O)(=O)Nc1ccncc1Oc1ccc(Cl)cc1Cl", "=", 0.12]
]}

* * *

Test system: Rattus norvegicus
Assay: Antiinflammatory activity against carrageenan-induced oedema in Wistar rat paw at 3 mg/kg, ip after 3 hrs relative to control
Type: functional
Details: route intraperitoneal
Group membership follows inhibition in vivo at 3 mg/kg per the scheme class A (below 10%), class B (10% to below 20%), class C (20% or more)

{"columns": ["Compound", "Cat"],
 "data": [
  ["CS(=O)(=O)Nc1ccncc1Oc1cccc(Cl)c1", "class B"],
  ["CS(=O)(=O)Nc1ccncc1Sc1ccccc1", "class A"],
  ["CS(=O)(=O)Nc1ccncc1Oc1cc(Cl)cc(Cl)c1", "class B"],
  ["CS(=O)(=O)Nc1ccc([N+](=O)[O-])cc1Oc1ccccc1 [NIMESULIDE]", "class C"],
  ["O=S(=O)(Nc1ccncc1Nc1ccccc1)C(F)(F)F", "class C"],
  ["O=S(=O)(Nc1ccncc1Oc1ccccc1)C(F)(F)F", "class B"],
  ["O=S(=O)(Nc1ccncc1Oc1ccc(Br)cc1)C(F)(F)F", "class A"],
  ["CS(=O)(=O)Nc1ccncc1Oc1ccc(Cl)cc1Cl", "class C"],
  ["CS(=O)(=O)Nc1ccncc1Oc1ccccc1Cl", "class A"],
  ["CS(=O)(=O)Nc1ccncc1Oc1ccc(Cl)cc1", "class C"]
]}

* * *

Species: Homo sapiens
Assay: Selectivity ratio of IC50 for human COX1 to IC50 for human COX2
Could you mark each record 1 if its Ratio IC50 falls strictly under 0.8, and 0 if it equals or exceeds it?

{"columns": ["Chem smiles", "Cat"],
 "data": [
  ["CS(=O)(=O)Nc1ccncc1Oc1ccc(Br)cc1", 1],
  ["CCCS(=O)(=O)Nc1ccncc1Oc1ccc(Cl)cc1", 1],
  ["O=S(=O)(Nc1ccncc1Oc1ccc(Br)cc1)C(F)(F)F", 1],
  ["CS(=O)(=O)Nc1ccncc1Oc1cccc(Cl)c1", 0],
  ["O=S(=O)(Nc1ccncc1Oc1ccc(Cl)cc1Cl)C(F)(F)F", 1],
  ["COc1ccc(Oc2cnccc2NS(=O)(=O)C(F)(F)F)cc1", 1],
  ["CN(c1ccccc1)c1cnccc1NS(=O)(=O)C(F)(F)F", 1],
  ["CCS(=O)(=O)Nc1ccncc1Oc1ccc(Cl)cc1", 1],
  ["CS(=O)(=O)Nc1ccncc1Oc1ccc(Cl)cc1Cl", 0],
  ["COc1ccc(Oc2cnccc2NS(C)(=O)=O)cc1", 1],
  ["CCS(=O)(=O)Nc1ccncc1Oc1ccccc1", 1],
  ["CS(=O)(=O)Nc1ccncc1Oc1ccccc1Cl", 0],
  ["CS(=O)(=O)Nc1ccncc1Oc1ccc(Cl)cc1", 1],
  ["O=S(=O)(Nc1ccncc1Oc1ccccc1Cl)C(F)(F)F", 0],
  ["O=S(=O)(Nc1ccncc1Oc1ccc(Cl)cc1)C(F)(F)F", 1],
  ["O=S(=O)(Nc1ccncc1Nc1ccccc1)C(F)(F)F", 0],
  ["CS(=O)(=O)Nc1ccncc1Sc1ccccc1", 0]
]}

* * *

Assay: Dissociation constant, pKa by sulfonamide/sulfonamidate equilibrium
Format: physicochemical
Reported metric: pKa

{"columns": ["Compound", "Experimental result"],
 "data": [
  ["O=S(=O)(Nc1ccncc1Oc1ccccc1)C(F)(F)F", "< 1"],
  ["O=S(=O)(Nc1ccncc1[S+]([O-])c1ccccc1)C(F)(F)F (stereo unspecified)", "< 1"],
  ["CS(=O)(=O)Nc1ccncc1Oc1ccc(Br)cc1", "< 4"],
  ["CS(=O)(=O)Nc1ccncc1Oc1ccc(Cl)cc1", "< 4"],
  ["CS(=O)(=O)Nc1ccncc1Oc1cccc(Cl)c1", "< 4"],
  ["CS(=O)(=O)Nc1ccncc1Oc1ccccc1", 2.98],
  ["CCS(=O)(=O)Nc1ccncc1Oc1ccc(Cl)cc1", "< 4"],
  ["O=S(=O)(c1ccccc1)c1cnccc1NS(=O)(=O)C(F)(F)F", "< 1"],
  ["O=S(=O)(Nc1ccncc1Sc1ccccc1)C(F)(F)F", "< 1"],
  ["CS(=O)(=O)Nc1ccncc1Oc1ccc(Cl)cc1Cl", "< 4"],
  ["O=S(=O)(Nc1ccncc1Oc1ccc(Cl)cc1)C(F)(F)F", "< 1"]
]}

meta.source: ChEMBL document CHEMBL1149303
